TARGET DESC: SHP2 (PTPN11/SHP2-FL) (Homo sapiens)
Construct: SHP2 (PTPN11/SHP2-FL, RBC produced, no cat #)
Sequence (Q06124 1-593): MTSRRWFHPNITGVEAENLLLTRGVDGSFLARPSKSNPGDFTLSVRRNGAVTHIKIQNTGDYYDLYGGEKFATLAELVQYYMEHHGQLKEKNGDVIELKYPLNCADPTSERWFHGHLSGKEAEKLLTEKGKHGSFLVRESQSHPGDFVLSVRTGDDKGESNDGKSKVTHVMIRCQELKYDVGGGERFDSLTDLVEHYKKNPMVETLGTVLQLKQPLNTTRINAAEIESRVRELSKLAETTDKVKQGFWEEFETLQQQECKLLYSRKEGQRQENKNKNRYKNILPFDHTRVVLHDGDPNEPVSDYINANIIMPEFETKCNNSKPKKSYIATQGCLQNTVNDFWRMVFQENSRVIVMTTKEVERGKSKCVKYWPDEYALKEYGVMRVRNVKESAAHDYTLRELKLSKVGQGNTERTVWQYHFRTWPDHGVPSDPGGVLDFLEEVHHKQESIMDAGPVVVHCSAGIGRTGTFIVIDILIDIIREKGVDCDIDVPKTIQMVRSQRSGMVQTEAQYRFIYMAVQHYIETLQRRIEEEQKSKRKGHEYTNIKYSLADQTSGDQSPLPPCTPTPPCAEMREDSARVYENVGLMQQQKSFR
PROTOCOL SUMMARY: SHP2 biochemical assay (DiFMUP prompt fluorescence)
CONDITION: 0.5 nM SHP2, 0.35 μM activating peptide, DiFMUP 100 μM; read-out: SHP2 bichemical activity (IC50)
METRIC: IC50

Examples from the recorded data:
CC1(N)CCN(c2cnc(Sc3cccc(S(=O)(=O)NC(=O)c4ccccc4)c3Cl)cn2)CC1 : 10 to 100 nM
CC1(CN)CCN(c2cnc(Sc3cccc(S(=O)(=O)NC(=O)c4ccccc4)c3Cl)cn2)CC1 : 10 to 100 nM
CC1(CN)CCN(c2cnc(Sc3cccc(C(=O)NS(C)(=O)=O)c3Cl)c(N)n2)CC1 : 10 to 100 nM
CC1(CN)CCN(c2cnc(Sc3cccc(NC(=O)NS(=O)(=O)C4CC4)c3Cl)cn2)CC1 : ≤ 10 nM
CC1(N)CCN(c2cnc(Sc3cccc(C(=O)NS(C)(=O)=O)c3Cl)cn2)CC1 : 10 to 100 nM
CC1(CN)CCN(c2cnc(Sc3cccc(C(=O)NS(=O)(=O)C4CCCC4)c3Cl)cn2)CC1 : ≤ 10 nM

Now look at this one.
Please give the measured IC50 for this compound: `CC1(N)CCN(c2cnc(Sc3cccc(C(=O)NS(=O)(=O)C4CCCCC4)c3Cl)cn2)CC1`
10 to 100 nM

Origin of values: patent US20250109118A1
